# INHIBITION per record follows
- Test system: Plasmodium berghei
- EXPERIMENT_NOTES: Screen against P. berghei liver stage (PbLuc), transformed with Luciferase, at 10uM
- Assay type: functional, HepG2
- CONDITION_INFO: tested at 10 uM
Hit rate of the full screen: of about 69,000 compounds, about 8,600 (12%) showed an effect of 50% or more. The sample holds strong results, similar compounds and a random draw of the others, so the mix is not that of the screen.
REPORTED_ENDPOINT: INHIBITION (%)

{"COMPOUND": "CCc1nnc(CN2CCC(C3CCCCCN3C(=O)C3CC3)CC2)o1 (configuration not stated)", "REPORTED_ENDPOINT": "INHIBITION", "MEASUREMENT_UNIT": "%", "MEASUREMENT": 62.8}
{"COMPOUND": "CCN(Cc1cccc2c1OCCO2)C(=O)NC(C)(C)C", "REPORTED_ENDPOINT": "INHIBITION", "MEASUREMENT_UNIT": "%", "MEASUREMENT": 51.1}
{"COMPOUND": "O=C(NCCc1nnc2n1CCC2)NCC1(c2ccccc2F)CC1", "REPORTED_ENDPOINT": "INHIBITION", "MEASUREMENT_UNIT": "%", "MEASUREMENT": 33.8}
{"COMPOUND": "CN(CC(C)(CO)CO)C(=O)Nc1cc(F)cc(Cl)c1", "REPORTED_ENDPOINT": "INHIBITION", "MEASUREMENT_UNIT": "%", "MEASUREMENT": -35.9}
{"COMPOUND": "O=C(Cc1c[nH]c2ccccc12)N1CCC(Nc2cccnc2)CC1", "REPORTED_ENDPOINT": "INHIBITION", "MEASUREMENT_UNIT": "%", "MEASUREMENT": -12.2}
{"COMPOUND": "Cc1cc(C(=O)N2CCn3cc(CN4CCCC4)nc3C2)no1", "REPORTED_ENDPOINT": "INHIBITION", "MEASUREMENT_UNIT": "%", "MEASUREMENT": 13.6}
{"COMPOUND": "CN(CC(=O)NC(C)(C)C)Cc1cccc2c1OCCO2", "REPORTED_ENDPOINT": "INHIBITION", "MEASUREMENT_UNIT": "%", "MEASUREMENT": 65}
{"COMPOUND": "CN1C[C@@H]2CN(Cc3ccsc3)CCC[C@]2(C(=O)O)C1", "REPORTED_ENDPOINT": "INHIBITION", "MEASUREMENT_UNIT": "%", "MEASUREMENT": -64.1}
{"COMPOUND": "Cc1cc(C(=O)N2CCn3cc(CN4CCCCC4)nc3C2)no1", "REPORTED_ENDPOINT": "INHIBITION", "MEASUREMENT_UNIT": "%", "MEASUREMENT": 17.1}
{"COMPOUND": "CN(CC(=O)NCC(F)(F)F)Cc1cccc2c1OCCO2", "REPORTED_ENDPOINT": "INHIBITION", "MEASUREMENT_UNIT": "%", "MEASUREMENT": 44.7}
{"COMPOUND": "CCOc1ccnc(N2CCN(C(=O)c3ccoc3)CC2)n1", "REPORTED_ENDPOINT": "INHIBITION", "MEASUREMENT_UNIT": "%", "MEASUREMENT": 23.7}
{"COMPOUND": "CCN(Cc1cccc2c1OCO2)C(=O)Nc1ccncc1", "REPORTED_ENDPOINT": "INHIBITION", "MEASUREMENT_UNIT": "%", "MEASUREMENT": 46.5}
